Molecular target: T1, cTnI quality control product recombinant protein (human, UniProt P19429 2-210, limits assumed)
T1 construct: treated as the same molecule; also called cTnI antigen; cardiac troponin I
T1 sequence (P19429 2-210 limits assumed): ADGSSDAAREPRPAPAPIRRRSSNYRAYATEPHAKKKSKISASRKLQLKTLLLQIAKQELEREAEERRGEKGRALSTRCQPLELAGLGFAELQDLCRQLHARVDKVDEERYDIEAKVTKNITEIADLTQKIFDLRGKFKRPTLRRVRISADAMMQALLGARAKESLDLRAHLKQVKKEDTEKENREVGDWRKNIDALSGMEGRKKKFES
Assay: AMC sensor, antibody immobilised, cTnI in solution
Value kind: pKd
The quantity pKd is defined as the negative base-10 logarithm of the molar concentration.

>>> value_measured("Mutation 1-23 (antibody, V domains shown, Built as m8) VH: EVQLQQSGPELVKPGASVKMSCKASGYTFTLYVIHWVKQKPGQGLEWIGYIYPYIDGTKYNEKFKGKATLTVDKSSSTAFMELSSLTSEDSAVYYCARSGYGGYGLAWLAYWGQGTLVTVSA VL: QAVVIQESALTTSPGETVTLTCRSSTGAVTTSNYANWVQEKPDHLFTGLIGGSQNRAPGVPARFSGSLIGDKAALTITGAQTEDEAIYFCALVYSNHWVFGGGTKLTVLG")
8.07
>>> value_measured("Mutation 1-30 (antibody, V domains shown, Built as m8) VH: EVQLQQSGPELVKPGASVKMSCKASGYTFTIYVVHWVKQKPGQGLEWIGYIQPYLDGTKYNEKFKGKATLTVDKSSSTAFMELSSLTSEDSAVYYCARSGYGQYGLAWLAYWGQGTLVTVSA VL: QAVVIQESALTTSPGETVTLTCRSSTGAATTSQYANWVQEKPDHLFTGLIGGSNNRAPGVPARFSGSLIGDKAALTITGAQTEDEAIYFCALVYSNQWVFGGGTKLTVLG")
8.43

Now look at this entry.
The binder listed as Mutation 1-42 (antibody, V domains shown, Built as m8) VH: EVQLQQSGPELVKPGASVKMSCKASGYTFTLYVVHWVKQKPGQGLEWIGYINPYLDGTKYNEKFKGKATLTVDKSSSTAFMELSSLTSEDSAVYYCARSGYGQYGLAWLAYWGQGTLVTVSA VL: QAVVIQESALTTSPGETVTLTCRSSTGAVTTSNYANWVQEKPDHLFTGLIGGSNNRAPGVPARFSGSLIGDKAALTITGAQTEDEAIYFCALVYSNHWVFGGGTKLTVLG has a reported pKd of 9.09
